# testedOn: MC4 (Homo sapiens, UniProt P32245)
# Sequence (P32245 whole entry): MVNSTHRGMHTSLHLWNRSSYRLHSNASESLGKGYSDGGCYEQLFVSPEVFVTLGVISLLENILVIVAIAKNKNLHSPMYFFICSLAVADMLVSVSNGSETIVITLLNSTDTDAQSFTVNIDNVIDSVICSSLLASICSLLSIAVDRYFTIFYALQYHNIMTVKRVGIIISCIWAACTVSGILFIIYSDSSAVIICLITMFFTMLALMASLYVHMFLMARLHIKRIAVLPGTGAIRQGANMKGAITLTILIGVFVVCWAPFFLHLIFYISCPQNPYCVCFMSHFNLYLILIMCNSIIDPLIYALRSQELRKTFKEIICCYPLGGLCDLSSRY
# assay: In vitro functional assay with recombinant cells: agonist-induced changes in intracellular Ca2+ (FLIPR)
# conditionDescription: recombinant HEK293 cells expressing MC4 and G-protein α-16; Fluo-4 Ca2+ FLIPR; 100% = 100 nM reference agonist MTII
Labelling: EC50 reported below 2 nM becomes Yes; at or above becomes No.

For this compound, is EC50 lower than 2 nM? CC(N)C(=O)N1CCCC1C(=O)NC1CN(S(=O)(=O)c2ccc(Cl)cc2Cl)C2CN(C(C)C)C(=O)C(Cc3ccc(Cl)cc3)N2C1=O (centres unmarked) Yes

Could you do the same for CCN1C[C@H]2N(C(=O)C(NC(=O)C3CCCN3C(=O)C(N)C(C)C)CN2S(=O)(=O)c2ccc(Cl)cc2Cl)[C@@H](Cc2ccc(F)c(F)c2)C1=O (some centres unmarked) , please? Yes

Also CC(C)C(N)C(=O)N1CCCC1C(=O)NC1CN(S(=O)(=O)c2ccc(Cl)cc2Cl)C2CN(C)C(=O)C(Cc3ccc(Cl)cc3)N2C1=O (centres unmarked) ? No

Then this compound: CC(C)C(N)C(=O)N1CCCC1C(=O)NC1CN(S(=O)(=O)c2ccc(Cl)cc2Cl)C2CN(C3CC3)C(=O)C(Cc3cccnc3)N2C1=O (centres unmarked) No

Please answer likewise for CC(C)C(N)C(=O)N1CCCC1C(=O)NC1CN(S(=O)(=O)c2ccc(Cl)cc2Cl)C2CN(CC(F)F)C(=O)C(Cc3ccc(Cl)cc3)N2C1=O (centres unmarked) Yes

Request: CC(C)C(N)C(=O)N1CCCC1C(=O)NC1CN(S(=O)(=O)c2cc(F)ccc2Cl)C2CN(C(C)C)C(=O)C(Cc3ccc(Cl)cc3)N2C1=O (centres unmarked) No

Repeat with CC(C)N1CC2N(C(=O)C(NC(=O)C3CCCN3C(=O)CN)CN2S(=O)(=O)c2ccc(Cl)cc2Cl)C(Cc2ccc(Cl)cc2)C1=O (centres unmarked) Yes

What do we get for CC(C)CC(N)C(=O)N1CCCC1C(=O)NC1CN(S(=O)(=O)c2ccc(Cl)cc2Cl)C2CN(C(C)C)C(=O)C(Cc3ccc(Cl)cc3)N2C1=O (centres unmarked) ? Yes

====

# testedOn: MC4 (Homo sapiens, UniProt P32245)
# assay: In vitro functional assay with recombinant cells: agonist-induced changes in intracellular Ca2+ (FLIPR)
# conditionDescription: recombinant HEK293 cells expressing MC4 and G-protein α-16; Fluo-4 Ca2+ FLIPR; 100% = 100 nM reference agonist MTII
Exercise: for every item that follows, state its recorded EC50.
Provide only the numeric value, understood in nM.

Endpoint output: EC50 of CC(C)C(N)C(=O)N1CCCC1C(=O)NC1CN(S(=O)(=O)c2ccc(Cl)cc2Cl)C2CN(C(C)C)C(=O)C(Cc3ccc(F)c(F)c3)N2C1=O (stereo not drawn) . Value? 1.5

// next record CC(C)C(N)C(=O)N1CCCC1C(=O)NC1CN(S(=O)(=O)c2ccc(Cl)cc2Cl)C2CN(C(C)C)C(=O)C(Cc3cccnc3)N2C1=O (stereo not drawn) 717

And what about the molecule CC(C)C(C(=O)N1CCCC1C(=O)NC1CN(S(=O)(=O)c2ccc(Cl)cc2Cl)C2CN(C(C)C)C(=O)C(Cc3ccc(Cl)cc3)N2C1=O)N(C)C (stereo not drawn) ? 2

====

For each entry below, report its EC50 value.
# testedOn: MC4 (Homo sapiens, UniProt P32245)
# Construct: expressed in transfected cells; host or cells: HEK293
# assay: In vitro functional assay with recombinant cells: agonist-induced changes in intracellular Ca2+ (FLIPR)
# Type: cell-based
# conditionDescription: recombinant HEK293 cells expressing MC4 and G-protein α-16; Fluo-4 Ca2+ FLIPR; 100% = 100 nM reference agonist MTII
# Description: In Vitro Functional Assays with Recombinant Cells Function-testing assays were carried out by determining the agonist-induced changes in the intracellular concentration of Ca^2+ in recombinant HEK293 cells which express both MC4 and G-protein α-16 by means of the FLIPR technique (“Fluorescence Imaging Plate Reader”, Molecular Devices Corp.). For the investigations, cells were seeded into 96-well microtiter plates (50 000 cells/well) and allowed to grow overnight. […]
Numbers only; they are read as nM.

Query for MC4 (Homo sapiens, UniProt P32245): what EC50 does the record show for CC(C)C(N)C(=O)N1CCCC1C(=O)NC1CN(S(=O)(=O)c2ccc(OC(F)(F)F)cc2Cl)C2CN(C(C)C)C(=O)C(Cc3ccc(Cl)cc3)N2C1=O (stereo not drawn) ? 2.6

Can you check CC(C)C(N)C(=O)N1CCCC1C(=O)NC1CN(S(=O)(=O)c2ccc(Cl)cc2Cl)C2CN(C(C)C)C(=O)C(Cc3ccc(F)cc3F)N2C1=O (stereo not drawn) next? 5.7

CC(C)C(N)C(=O)N1CCCC1C(=O)NC1CN(S(=O)(=O)c2ccc(Cl)cc2F)C2CN(C(C)C)C(=O)C(Cc3ccc(Cl)cc3)N2C1=O (stereo not drawn) ? 2.4

====

# testedOn: MC4 (Homo sapiens)
# assay: In vitro functional assay with recombinant cells: agonist-induced changes in intracellular Ca2+ (FLIPR)
# conditionDescription: recombinant HEK293 cells expressing MC4 and G-protein α-16; Fluo-4 Ca2+ FLIPR; 100% = 100 nM reference agonist MTII
Provide the reported EC50 of each item.
Numeric answer only, unit nM assumed.

Query (compound): CC(C)C(N)C(=O)N1CCCC1C(=O)NC1CN(S(=O)(=O)c2ccc(Cl)cc2Cl)C2CN(C)C(=O)C(Cc3ccc(F)c(F)c3)N2C1=O (stereo not drawn) ; field requested: EC50 30.8

# iterate: CC(C)C(N)C(=O)N1CCCC1C(=O)NC1CN(S(=O)(=O)c2ccc(Cl)cc2Cl)C2CN(C(C)C)C(=O)C(Cc3ccc(Cl)cc3)N2C1=O (stereo not drawn) 0.4

Param item: CCN1CC2N(C(=O)C(NC(=O)C3CCCN3C(=O)C(N)C(C)C)CN2S(=O)(=O)c2ccc(Cl)cc2Cl)C(Cc2ccc(Cl)cc2)C1=O (stereo not drawn) 0.6
